Assay type: physicochemical
Conditions: buffer, pH 7.5
measure_name: T1/2, temperature where 50% of the protein was unfolded, Buffer (°C)
Give bare numbers, in °C.

MON-HT55: engineered oxygenase protein, amino acid sequence SEQ ID NO:11 (protein) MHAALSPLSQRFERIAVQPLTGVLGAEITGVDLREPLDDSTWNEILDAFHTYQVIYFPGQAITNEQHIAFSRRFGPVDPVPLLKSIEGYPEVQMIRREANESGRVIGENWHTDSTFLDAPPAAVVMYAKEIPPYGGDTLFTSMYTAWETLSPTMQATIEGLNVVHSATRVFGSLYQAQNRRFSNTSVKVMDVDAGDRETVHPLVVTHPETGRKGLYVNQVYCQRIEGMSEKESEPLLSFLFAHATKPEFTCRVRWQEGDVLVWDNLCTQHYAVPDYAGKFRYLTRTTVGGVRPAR; 41

Now turn to the next molecule.
If you can, please state the reported T1/2, temperature where 50% of the protein was unfolded, Buffer value of MON-HT8: engineered oxygenase protein, amino acid sequence SEQ ID NO:37 (protein) MHAALTPLTNKYRFIDVQPLTGVLGAEITGVDLREPLDDSTWNEILDAFHTYQVIYFPGQAITNEQHIAFSRRFGPVDPVPILKSIEGYPEVQMIRREANESGRVIGDDWHTDSTFLDAPPAAVVMRAIEVPEYGGDTGFLSMYSAWETLSPTMQATIEGLNVVHSATKVFGSLYQATNWRFSNTSVKVMDVDAGDRETVHPLVVTHPVTGRRALYCNQVYCQKIQGMTDAESKSLLQFLYEHATKFDFTCRVRWKKDQVLVWDNLCTMHRSVPDYGNAFRYLTRTTVAGDKPSR .
61
